Reported TGI by item:
# Test system: SNB-75 CNS
# test-method-notes: NCI tumour cell line growth inhibition, 48 h

Example cases with answers are listed next.
[[record]]
molecule = "C=CCN1C(=O)/C(=C/c2ccccc2)N=C1SC1OC(COC(=O)c2ccccc2)C(OC(=O)c2ccccc2)C1OC(=O)c1ccccc1 (stereo unspecified)"
assay_metric = "TGI"
result = "> 100 µM"

[[record]]
molecule = "COc1ccc(OC)c(NC(=O)C(=O)C(C(C)=O)c2nc3ccc(Cl)cc3[nH]c2=O)c1 (stereo unspecified)"
assay_metric = "TGI"
result = "> 50 µM"

[[record]]
molecule = "CN(CCC#N)c1ccc(/C=C2\\SC(=S)NC2=O)cc1"
assay_metric = "TGI"
result = "> 100 µM"

[[record]]
molecule = "COCOC1/C=C/CCCCC2=C(C)C=C(C1)O2 (stereo unspecified)"
assay_metric = "TGI"
result = "> 100 µM"

[[record]]
molecule = "CC(C)CC(=O)[O-].CC(C)CC(=O)[O-].N.N.N.N.[Co+3].[O-][Cl+3]([O-])([O-])[O-]"
assay_metric = "TGI"
result = "> 100 µM"


# CN(C)/N=N/c1nc2c(c(=O)n(C)c(=O)n2C)n1C with SNB-75 CNS: TGI is > 100 µM

Note to self: TGI of CCCCN(CCCC)C(=O)C(=O)C(C#N)c1ccc(C)cc1 (stereo unspecified) with SNB-75 CNS was > 100 µM
